B1: tRNA (parent)
chain: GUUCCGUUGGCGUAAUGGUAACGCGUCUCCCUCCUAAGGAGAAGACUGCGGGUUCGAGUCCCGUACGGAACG

variants of: B1; experiment: yeast fitness relative to wild type (ratio to wild type); higher = fitter; tRNA-Arg(CCU), competitive growth, 37 C, YPD
Fewer inactive variants are shown than the library holds.
Please go through the items and note down their yeast fitness.
One number for each entry.

Past entries and their recorded results:
U2A C5U C66U : 0.661
G18A C31U A70G : 0.726
G23A A57G : 0.715

For the 6 variants below, give their yeast fitness values.
1. U2C G56C
2. C34G A42G C62U
3. G6C A70U
4. C4A C5A
5. A65C C66U
6. C33G G52A

Data returned:
[0.727, 0.589, 0.823, 0.752, 0.89, 0.582]

For the 3 variants below, give their yeast fitness values.
1. U32G C62A
2. G12A A40C C66U
3. A14C C29U A36G A45U A70G

Data returned:
1: 0.512; 2: 0.532; 3: 0.548

For the 3 variants below, give their yeast fitness values.
1. A37C A43U A69U
2. U8A C24A U28C G56A
3. C11U C33G U47A U64G

Data returned:
0.738
0.556
0.552
